test system: 931267-113-T-J1-PDC KRAS spheroid with HUVEC/MSC, viability; assay: Anticancer human tumor 931267-113-T-J1-PDC patient-derived colon adenocarcinoma cell line growth inhibition [KRAS2]; conditions: second compound 0.1 µM; first compound 0.01 µM; active compounds read low
Label Condition met when viability, T/C is strictly below 60%; otherwise label Condition not met.

Please review the following examples before continuing.
CC(=O)OC12COC1CC(O)C1(C)C(=O)C(O)C3=C(C)C(OC(=O)C(O)C(NC(=O)OC(C)(C)C)c4ccccc4)CC(O)(C(OC(=O)c4ccccc4)C21)C3(C)C (centres undefined) + COc1cc2nc(C)nc(NC(C)c3cc(N)cc(C(F)(F)F)c3)c2cc1OC1CCOC1 ... Condition not met
CC1COCCN1c1cc(-c2ccnn2C)c2ccnc(-c3ccn[nH]3)c2n1 (centres undefined) + COc1cc2nc(C)nc(NC(C)c3cc(N)cc(C(F)(F)F)c3)c2cc1OC1CCOC1 ... Condition not met

Task: Here's an entry: CN(C)C/C=C/C(=O)Nc1cc2c(Nc3ccc(F)c(Cl)c3)ncnc2cc1O[C@H]1CCOC1 + C=CC(=O)N1CCN(c2nc(OCC3CCCN3C)nc3c2CCN(c2cccc4cccc(C)c24)C3)CC1CC#N . Is its viability, T/C below 60%?
Result: Condition not met

Task: Here's an entry: CN(C)C/C=C/C(=O)Nc1cc2c(Nc3ccc(F)c(Cl)c3)ncnc2cc1O[C@H]1CCOC1 + C=CC(=O)N1CCN(c2nc(=O)n(-c3c(C)ccnc3C(C)C)c3nc(-c4c(O)cccc4F)c(F)cc23)C(C)C1 . Is its viability, T/C below 60%?
Result: Condition not met

Task: Here's an entry: CC(C)n1nc(-c2ccc3oc(N)nc3c2)c2c(N)ncnc21 + CNCc1ccccc1-c1csc(C(C)Nc2nc(C)nc3cc(OC)c(OC)cc23)c1 . Is its viability, T/C below 60%?
Result: Condition met

Task: Here's an entry: CC(=O)Nc1cccc(-n2c(=O)n(C3CC3)c(=O)c3c(Nc4ccc(I)cc4F)n(C)c(=O)c(C)c32)c1 + CC1OCC2(CCN(c3cnc(Sc4ccnc(N)c4Cl)c(N)n3)CC2)C1N . Is its viability, T/C below 60%?
Result: Condition not met

Task: Here's an entry: CC(C)n1nc(-c2ccc3oc(N)nc3c2)c2c(N)ncnc21 + C=CC(=O)N1CCN(c2nc(OCC3CCCN3C)nc3c2CCN(c2cccc4cccc(C)c24)C3)CC1CC#N . Is its viability, T/C below 60%?
Result: Condition met

Task: Here's an entry: Cn1ncnc1[C@H]1c2n[nH]c(=O)c3cc(F)cc(c23)N[C@@H]1c1ccc(F)cc1 + COc1cc2nc(C)nc(NC(C)c3cc(N)cc(C(F)(F)F)c3)c2cc1OC1CCOC1 . Is its viability, T/C below 60%?
Result: Condition not met

====

tested on: 931267-113-T-J1-PDC KRAS spheroid with HUVEC/MSC, viability; test: Anticancer human tumor 931267-113-T-J1-PDC cell line growth inhibition [KRAS2]; conditions: second compound 10 µM; first compound 0.001 µM; active compounds read low;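 also: compound exposure lasted 7 days before the readout; 100% = DMSO vehicle control viability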
Each record here notes measured viability, T/C.
Provide the reading as a plain figure in %.

Below are worked cases with known answers.
CN(C)C/C=C/C(=O)Nc1cc2c(Nc3ccc(F)c(Cl)c3)ncnc2cc1O[C@H]1CCOC1 + CC1OCC2(CCN(c3cnc(Sc4ccnc(N)c4Cl)c(N)n3)CC2)C1N ... 71.6
CN(C)C/C=C/C(=O)Nc1cc2c(Nc3ccc(F)c(Cl)c3)ncnc2cc1O[C@H]1CCOC1 + CNCc1ccccc1-c1csc(C(C)Nc2nc(C)nc3cc(OC)c(OC)cc23)c1 ... 0.22
CN(C)C/C=C/C(=O)Nc1cc2c(Nc3ccc(F)c(Cl)c3)ncnc2cc1O[C@H]1CCOC1 + COc1cc2nc(C)nc(NC(C)c3cc(N)cc(C(F)(F)F)c3)c2cc1OC1CCOC1 ... 78.8

Task: Which viability, T/C value is on record for Cn1ncnc1[C@H]1c2n[nH]c(=O)c3cc(F)cc(c23)N[C@@H]1c1ccc(F)cc1 + CC1OCC2(CCN(c3cnc(Sc4ccnc(N)c4Cl)c(N)n3)CC2)C1N ?
Result: 73.5

Task: Which viability, T/C value is on record for CC(C)n1nc(-c2ccc3oc(N)nc3c2)c2c(N)ncnc21 + CNCc1ccccc1-c1csc(C(C)Nc2nc(C)nc3cc(OC)c(OC)cc23)c1 ?
Result: 0.81

Task: Which viability, T/C value is on record for CN(C)C/C=C/C(=O)Nc1cc2c(Nc3ccc(F)c(Cl)c3)ncnc2cc1O[C@H]1CCOC1 + C=CC(=O)N1CCN(c2nc(=O)n(-c3c(C)ccnc3C(C)C)c3nc(-c4c(O)cccc4F)c(F)cc23)C(C)C1 ?
Result: 138

Task: Which viability, T/C value is on record for CC(C)n1nc(-c2ccc3oc(N)nc3c2)c2c(N)ncnc21 + CC1OCC2(CCN(c3cnc(Sc4ccnc(N)c4Cl)c(N)n3)CC2)C1N ?
Result: 77.7

Task: Which viability, T/C value is on record for CC(C)n1nc(-c2ccc3oc(N)nc3c2)c2c(N)ncnc21 + COc1cc2nc(C)nc(NC(C)c3cc(N)cc(C(F)(F)F)c3)c2cc1OC1CCOC1 ?
Result: 1.1

Task: Which viability, T/C value is on record for CC(=O)Nc1cccc(-n2c(=O)n(C3CC3)c(=O)c3c(Nc4ccc(I)cc4F)n(C)c(=O)c(C)c32)c1 + COc1cc2nc(C)nc(NC(C)c3cc(N)cc(C(F)(F)F)c3)c2cc1OC1CCOC1 ?
Result: 20.4

Task: Which viability, T/C value is on record for CC(C)n1nc(-c2ccc3oc(N)nc3c2)c2c(N)ncnc21 + C=CC(=O)N1CCN(c2nc(=O)n(-c3c(C)ccnc3C(C)C)c3nc(-c4c(O)cccc4F)c(F)cc23)C(C)C1 ?
Result: 86.4

Task: Which viability, T/C value is on record for CC(=O)Nc1cccc(-n2c(=O)n(C3CC3)c(=O)c3c(Nc4ccc(I)cc4F)n(C)c(=O)c(C)c32)c1 + CNCc1ccccc1-c1csc(C(C)Nc2nc(C)nc3cc(OC)c(OC)cc23)c1 ?
Result: 0.14
